Test system: Falciformispora senegalensis CBS197.79
EXPERIMENT: growth relative to untreated control; higher = less inhibition, active = 20 or less
APPLIED_CONDITIONS: 25 µM
Decide using growth: a value greater than or equal to 90% is Yes, a smaller one is No.

[ask] Confirm if growth reported for the compound COc1ccc(-n2nc(C(N)=O)c3c2C(=O)N(c2ccc(N4CCCCC4=O)cc2)CC3)cc1 is 90% or above.
[reply] Yes

[ask] Confirm if growth reported for the compound C[C@@H]1CS/C(=N\NC(=O)C(=O)[C@@H](NC(=O)C2CCCCCC2)C2CCOCC2)N1C is 90% or above.
[reply] Yes

[ask] Confirm if growth reported for the compound COc1c(C)c2c(c(O)c1C/C=C(\C)CCC(=O)O)C(=O)OC2 is 90% or above.
[reply] Yes

[ask] Confirm if growth reported for the compound CC(C)CC(NCCc1ccccc1O)c1ccccn1 (stereo not drawn) is 90% or above.
[reply] Yes

[ask] Confirm if growth reported for the compound Cc1cccnc1-c1noc(-c2ccccc2)n1 is 90% or above.
[reply] Yes

[ask] Confirm if growth reported for the compound CC[C@H](C)[C@@H]1NC(=O)c2csc(n2)[C@H]([C@@H](C)CC)NC(=O)c2csc(n2)CNC(=O)c2nc1oc2C is 90% or above.
[reply] No

[ask] Confirm if growth reported for the compound O=C(OI(OC(=O)C(F)(F)F)c1ccccc1)C(F)(F)F is 90% or above.
[reply] Yes

[ask] Confirm if growth reported for the compound O=S(=O)(NCC1(O)CCOc2ccccc21)c1ccccc1F (stereo not drawn) is 90% or above.
[reply] No

[ask] Confirm if growth reported for the compound OC1(CN2CCC(Oc3cccc(C(F)(F)F)c3)CC2)CCNC1 (stereo not drawn) is 90% or above.
[reply] Yes

[ask] Confirm if growth reported for the compound COC(=O)[C@@]1(c2ccc(C)cc2)C[C@H]1CN1CCC(O)(c2ccccc2)CC1 is 90% or above.
[reply] Yes

[ask] Confirm if growth reported for the compound Cc1ccc(C(=O)Nc2ccc(CN3CCN(C)CC3)c(C(F)(F)F)c2)cc1C#Cc1cnc2cccnn12 is 90% or above.
[reply] No

[ask] Confirm if growth reported for the compound CO[C@@H](C(=O)N1Cc2[nH]nc(NC(=O)c3ccc(N4CCN(C)CC4)cc3)c2C1)c1ccccc1 is 90% or above.
[reply] Yes

[ask] Confirm if growth reported for the compound Cc1nc(NCc2ccc(F)cc2)nc(NCC(C)(C)C)c1C is 90% or above.
[reply] No

[ask] Confirm if growth reported for the compound CN(C)CCCN1C(=O)c2[nH]nc(-c3ccc(Cl)cc3O)c2C1c1ccc(Cl)cc1 (stereo not drawn) is 90% or above.
[reply] No

[ask] Confirm if growth reported for the compound O=C(c1ccc(Nc2nccc(-c3ccc(Cl)cc3)n2)cc1)N1CCS(=O)(=O)CC1 is 90% or above.
[reply] No

[ask] Confirm if growth reported for the compound Clc1ccc2c(N3CCN(CCCN4CCN(c5ccnc6cc(Cl)ccc56)CC4)CC3)ccnc2c1 is 90% or above.
[reply] Yes

[ask] Confirm if growth reported for the compound CN1CCN(c2ccc(C(=O)NCc3cnc(C#N)nc3NCC(C)(C)C)cc2)CC1 is 90% or above.
[reply] Yes

[ask] Confirm if growth reported for the compound CO[C@H]1C[C@H](O[C@@H]2/C(C)=C/C[C@@H]3C[C@@H](C[C@]4(CC[C@H](C)[C@@H](C5CCCCC5)O4)O3)OC(=O)[C@@H]3C=C(C)/C(=N/O)[C@H]4OC/C(=C\C=C\[C@@H]2C)[C@]43O)O[C@@H](C)[C@@H]1O is 90% or above.
[reply] Yes
